Assignment: determine reported Binding AUC for the given binders.
measurement.target: T1, SARS-CoV-2 S1 (40591-V08H3, Sino Biological) (SARS-CoV-2, UniProt P0DTC2 16-685)
T1 construct: domain: S1
procedure.summary: ELISA, hmAb at 10 and 1 ug/ml in duplicate; AUC
Just the number.

Record 1242D11 (antibody, V domains shown) VH: QVQLVQSGGGLVQPGGSLRLSCAVSGFTFSSYWMSWVRQAPGKGLEWVANIKQDGSEKYYVDSVKGRFTISRDNAKNSLFLQMNSLRAEDTAVYYCAREAVGYYYDSRGYHYSWYFDLWGRGTLVTVSS VL: EIVLTQSPGTLSLSPGERATLSCRASQSVSSSYLVWYQQKPGQAPRLLIFGASSRATGIPDRFSGSGSGTDFTLTISSLEPEDFAVYYCQHYGSSPPMYTFGQGTKLEIK , field Binding AUC: 2.9

Reported Binding AUC for 1242F4 (antibody, V domains shown, Recombinant human IgG1) VH: EVQLVQSGAEVKKPGTSVKVSCKASGNTVADYYMHWVRQAPRQGLEWVGLINPSGSGTAYAQNFQGRVTLTRDTSTSTLYMELGSLGSEDTAIYYCARMDSSGTYDVWGQGTLVTVSS VL: EIVLTQSPGTLSLSPGERATLSCRASQSIRSGYLAWYQQKPGQAPRLLIRGASVKATGIPDRFSGSGSGTDFTLTISRLEPEDFVVYYCQHFASSPPRYTFGQGTKLEIK was 1.3

According to the records, this binder 1250E10 (antibody, V domains shown, Recombinant human IgG1) VH: EVQLVQSGAEVKKPGASVKFSCKASGFRVDGSYMHWVRQAPRGGLEWMGLINPSGSGTAYAQIFQGRVTLTRDTSTSTLYMELGSLGSEDTAMYYCARMDRSGSYDLWGQGTLVIVSS VL: DIVLTQSPGNLSLSPGERATLSCRASESIRSAYIAWYQQKPGQAPRLLMRGASVRAAGIPDRFSGSGSGTDYALTISRLEPEDFAVYYCQHFASSPPRYTFGQGTKLEIK displays Binding AUC of 2.9

Data credit: patent US20240270828A1
